assayed-target: T1, PPR2.0 t1 (synthetic)
T1 chain: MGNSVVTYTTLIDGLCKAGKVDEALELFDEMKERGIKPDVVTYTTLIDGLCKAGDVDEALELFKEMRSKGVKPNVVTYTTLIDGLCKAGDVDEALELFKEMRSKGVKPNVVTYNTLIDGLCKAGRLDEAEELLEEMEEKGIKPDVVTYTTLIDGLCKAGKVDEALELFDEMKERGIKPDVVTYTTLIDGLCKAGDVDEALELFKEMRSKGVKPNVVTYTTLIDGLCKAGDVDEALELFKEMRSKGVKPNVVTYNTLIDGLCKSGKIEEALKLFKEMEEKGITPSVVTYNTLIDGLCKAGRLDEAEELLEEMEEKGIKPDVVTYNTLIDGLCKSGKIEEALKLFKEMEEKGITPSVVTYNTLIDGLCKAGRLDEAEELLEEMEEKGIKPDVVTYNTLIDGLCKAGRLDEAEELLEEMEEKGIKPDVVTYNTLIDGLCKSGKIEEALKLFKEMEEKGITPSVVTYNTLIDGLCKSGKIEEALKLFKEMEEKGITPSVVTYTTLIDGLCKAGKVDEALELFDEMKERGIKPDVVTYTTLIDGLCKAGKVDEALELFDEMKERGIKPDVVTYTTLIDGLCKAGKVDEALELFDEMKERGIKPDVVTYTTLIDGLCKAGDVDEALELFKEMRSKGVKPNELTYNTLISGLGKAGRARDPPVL
test-protocol: EMSA; 20 mM Tris-HCl pH 8.0, 150 mM NaCl, 0.5% NP-40, 1 mM DTT, 1 mM EDTA; 20 nM RNA
setup-conditions: tags: N-terminal SBP, C-terminal His6, kept; label: biotin
pKd: −log10 of the molar value.
measured-parameter: pKd

>>> df
                                     binder  reported_result
0  GACAUGCGAAUGAACUCUUCCGGGAGACUG (ssRNA) [Probe_t1]             8.46
